# Species on record: Rattus norvegicus
# experimental-protocol: DrugMatrix - Regimen: Daily Repeat
# Assay type: toxicity, organism-based, Sprague-Dawley
# Set-up: regimen Daily Repeat, gender Male, age 6-8 weeks
# assay-conditions: in vivo, iv, 0 mg/kg, 120 h, tissue Blood, dose level Control, time 5 day, vehicle 100 % SALINE
Give NUCLEATED RED BLOOD CELLS for every item shown.

### Prompt Please look up its NUCLEATED RED BLOOD CELLS: CC[C@@]1(O)C(=O)OCc2c1cc1n(c2=O)Cc2cc3ccccc3nc2-1
### Response 0 /100WBC

### Prompt Please look up its NUCLEATED RED BLOOD CELLS: NCC[C@H](O)C(=O)N[C@@H]1C[C@H](N)[C@@H](O[C@H]2O[C@H](CN)[C@@H](O)[C@H](O)[C@H]2O)[C@H](O)[C@H]1O[C@H]1O[C@H](CO)[C@@H](O)[C@H](N)[C@H]1O
### Response 0 /100WBC

### Prompt Please look up its NUCLEATED RED BLOOD CELLS: CN(N=O)C(=O)N[C@@H](C=O)[C@@H](O)[C@H](O)[C@H](O)CO
### Response 0.17 /100WBC

### Prompt Please look up its NUCLEATED RED BLOOD CELLS: CC1(C)S[C@@H]2[C@H](NC(=O)[C@H](NC(=O)N3CCNC3=O)c3ccccc3)C(=O)N2[C@H]1C(=O)O
### Response 0 /100WBC
